Provide the recorded pIC50 for the entries that follow.
MEASUREMENT TARGET: BK2 receptor sites in guinea pig ileum (Cavia porcellus)
Construct: The distal portion of the ileum is removed and placed in ice cold homogenization buffer
ASSAY TEXT: Bradykinin Receptor Binding Assay (3H-BK Binding, G. P. Ileum)
TEST SETTINGS: 80 pM 3H-BK
Schema: pIC50 number; meaning minus log10 of the concentration expressed in molar units.

Entry O=C(NC1CCN(Cc2ccccc2)CC1)c1ccc(OCc2ccnc3ccccc23)cc1 [Example 1] has what pIC50?
5.04

Same for O=C(NC1CCN(Cc2ccccc2)CC1)c1ccc(OCc2ccc3ccccc3n2)cc1 [Example 2]
4.47

Same for O=C(NC1CCN(Cc2ccccc2)CC1)c1cccc(OCc2ccnc3ccccc23)c1 [Example 5]
5.14

---

Provide the recorded inhibition at 10 µM for the entries that follow.
MEASUREMENT TARGET: BK2 receptor sites in guinea pig ileum (Cavia porcellus, UniProt O70526)
Construct: The distal portion of the ileum is removed and placed in ice cold homogenization buffer; from tissue; host or cells: distal ileum of adult male Hartley guinea pigs (animals from Charles River), washed membrane homogenate
Sequence (O70526 1-372): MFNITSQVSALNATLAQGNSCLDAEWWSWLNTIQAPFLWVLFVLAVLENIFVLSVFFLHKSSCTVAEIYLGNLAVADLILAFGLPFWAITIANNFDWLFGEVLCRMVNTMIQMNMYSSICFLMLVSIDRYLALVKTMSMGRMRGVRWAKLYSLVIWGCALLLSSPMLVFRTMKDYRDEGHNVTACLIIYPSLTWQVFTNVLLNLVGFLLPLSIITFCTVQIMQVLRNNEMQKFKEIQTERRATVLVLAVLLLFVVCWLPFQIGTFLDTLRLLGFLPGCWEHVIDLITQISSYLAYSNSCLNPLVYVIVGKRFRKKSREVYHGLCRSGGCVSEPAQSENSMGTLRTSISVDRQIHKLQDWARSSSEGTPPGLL
ASSAY TEXT: Bradykinin Receptor Binding Assay (3H-BK Binding, G. P. Ileum)
Design: species or system guinea pig (Hartley strain)
TEST SETTINGS: 10 μM; 80 pM 3H-BK
Kindly provide the numeric value in % only, without the unit symbol.

Entry O=C(NC1CCN(Cc2ccccc2)CC1)c1ccc(/C=C/c2ccnc3ccccc23)cc1 [Example 12] has what inhibition at 10 µM?
78.7

Same for CCCCN1CCC(NC(=O)c2ccc(OCc3ccnc4ccccc34)cc2)CC1 [Example 3]
15.2

Same for CCCC(=O)N(Cc1ccc(OCc2ccnc3ccccc23)cc1)C1CCN(Cc2ccccc2)CC1 [Example 17]
25.3

Same for O=C(NC1CCN(Cc2ccccc2)CC1)c1ccc(OCc2cccc3ccccc23)cc1 [Example 10]
8.6

---

MEASUREMENT TARGET: BK2 receptor sites in guinea pig ileum (Cavia porcellus)
Construct: The distal portion of the ileum is removed and placed in ice cold homogenization buffer; from tissue; host or cells: distal ileum of adult male Hartley guinea pigs (animals from Charles River), washed membrane homogenate
ASSAY TEXT: Bradykinin Receptor Binding Assay (3H-BK Binding, G. P. Ileum)
Design: species or system guinea pig (Hartley strain)
TEST SETTINGS: 10 μM; 80 pM 3H-BK
QUANTITY: inhibition at 10 µM (%)
Kindly provide the numeric value in % only, without the unit symbol.

Entry O=C(NC1CCN(Cc2ccccc2)CC1)c1cccc(OCc2ccc3ccccc3n2)c1 [Example 7] has what inhibition at 10 µM?
43.2

Same for CCCCN1CCC(NC(=O)c2ccc(NCc3ccnc4ccccc34)cc2)CC1 [Example 19]
32.8

Same for CCCCN1CCC(NC(=O)c2ccc(OCc3cccc4ccccc34)cc2)CC1 [Example 11]
11.1

Same for O=C(NC1CCN(Cc2ccccc2)CC1)c1ccc(OCc2cc[n+]([O-])c3ccccc23)cc1 [Example 14]
30.2
